assay_remarks: Pharmacokinetics (PK) evaluation in mice
Format: in vivo
study_conditions: mouse, plasma; ICR mice, po 10 mg/kg, 3 hour; read-out: Plasm drug conc.
parameter_measured: concentration at 3 h (ng/mL)
Report only the number, with the unit ng/mL understood.

[ask] For the compound `CCOC(=O)C1=C(CN2CCN3C(=O)N(C45CCC(CC(=O)O)(C4)C5)C[C@@H]3C2)NC(c2nccs2)=N[C@H]1c1cccc(F)c1C` , give its measured concentration at 3 h value.
[reply] 470

[ask] For the compound `CCOC(=O)C1=C(CN2CCN3C(=O)N(C45CC(CC(=O)O)(C4)C5)C[C@@H]3C2)NC(c2nccs2)=N[C@H]1c1cccc(F)c1C` , give its measured concentration at 3 h value.
[reply] 180

---

The reader will find reported EC50 values listed item by item below.
System: HBV (hepatitis B virus) in HepG2.2.15 cells
assay_remarks: Cell-based anti-viral activity assay (HBV DNA in supernatant by quantitative PCR)
study_conditions: 120 h, anti-HBV activity, HepG2.2.15 cells, 5 days, read-out: EC50 (HepG2.2.15)
Output should be the measured figure followed by the unit it is expressed in.

# molecule, parameter_measured, recorded_result
measured = [
    ("CCOC(=O)C1=C(CN2CCN3C(=O)N(C45CC(N(C)CC(=O)O)(C4)C5)C[C@@H]3C2)NC(c2nccs2)=N[C@H]1c1cccc(F)c1C [Compound 49]", "EC50", "17 nM"),
    ("CCOC(=O)C1=C(CN2CCN3C(=O)N(C45CC(CC(=O)O)(C4)C5)C[C@@H]3C2)NC(c2nccs2)=N[C@H]1c1cccc(F)c1Cl [Compound 34]", "EC50", "22 nM"),
]

Now look at this entry.
[ask] For the molecule CCOC(=O)C1=C(CN2CCN3C(=O)N(C45CC(CNS(C)(=O)=O)(C4)C5)C[C@@H]3C2)NC(c2nccs2)=N[C@H]1c1cccc(F)c1C [Compound 14] , give its measured EC50 value.
[reply] 4 nM

---

assay_remarks: Pharmacokinetics (PK) evaluation in mice
Assay type: in vivo
study_conditions: mouse, liver; ICR mice, po 10 mg/kg, 1 hour; read-out: Liver drug conc.
parameter_measured: concentration at 1 h

# smiles_notation, concentration at 1 h
data = [
    ("CCOC(=O)C1=C(CN2CCN3C(=O)N(C45CCC(CC(=O)O)(C4)C5)C[C@@H]3C2)NC(c2nccs2)=N[C@H]1c1cccc(F)c1C", "61300 ng/g"),
]

Now look at this entry.
[ask] For the compound `CCOC(=O)C1=C(CN2CCN3C(=O)N(C45CC(CC(=O)O)(C4)C5)C[C@@H]3C2)NC(c2nccs2)=N[C@H]1c1cccc(F)c1C` , give its measured concentration at 1 h value.
[reply] 94800 ng/g

---

assay_remarks: Pharmacokinetics (PK) evaluation in mice
Format: in vivo
study_conditions: mouse, liver; ICR mice, po 10 mg/kg, 3 hour; read-out: Liver drug conc.
Procedure: Pharmacokinetics (PK) Evaluation in Mice Test compounds were administered to ICR mice by gavage (po). The po dose was 10 mg/kg, and the vehicle formulation was 10% DMSO+40% PEG400+50% Saline (0.9% saline). Animals were fasted overnight (10-14 h) before administration and fed 4 h after administration. […] The drug concentrations in plasma and liver were analyzed by LC-MS/MS method. […]
The reader will find reported concentration at 3 h values listed item by item below.
Report only the number, with the unit ng/g understood.

# compound, unit_label, recorded_result
records = [
    ("CCOC(=O)C1=C(CN2CCN3C(=O)N(C45CC(CC(=O)O)(C4)C5)C[C@@H]3C2)NC(c2nccs2)=N[C@H]1c1cccc(F)c1C [Compound 22]", "ng/g", 24700),
]

[ask] For the compound CCOC(=O)C1=C(CN2CCN3C(=O)N(C45CCC(CC(=O)O)(C4)C5)C[C@@H]3C2)NC(c2nccs2)=N[C@H]1c1cccc(F)c1C [Compound 58] , give its measured concentration at 3 h value.
[reply] 26800

---

Tested on: HBV (hepatitis B virus) in HepG2.2.15 cells
assay_remarks: Cell-based anti-viral activity assay (HBV DNA in supernatant by quantitative PCR)
study_conditions: 120 h, anti-HBV activity, HepG2.2.15 cells, 5 days, read-out: EC50 (HepG2.2.15)
The reader will find reported EC50 values listed item by item below.
Report only the number, with the unit nM understood.

Examples with their reported EC50 follow.
# compound, unit_label, EC50
records = [
    ("CCOC(=O)C1=C(CN2CCN3C(=O)N(C45CC(CC(=O)O)(C4)C5)C[C@@H]3C2)NC(c2nccs2)=N[C@H]1c1ccc(F)c(F)c1", "nM", 48),
    ("CCOC(=O)C1=C(CN2CCN3C(=O)N(C45CC(NC(C)=O)(C4)C5)C[C@@H]3C2)NC(c2nccs2)=N[C@H]1c1cccc(F)c1C", "nM", 8),
    ("CCOC(=O)C1=C(CN2CCN3C(=O)N(C45CCC(C(=O)O)(CC4)CC5)C[C@@H]3C2)NC(c2nccs2)=N[C@H]1c1ccc(F)cc1Cl", "nM", 2),
    ("CCOC(=O)C1=C(CN2CCN3C(=O)N(C45CCC(CC(=O)O)(CC4)C5)C[C@@H]3C2)NC(c2nccs2)=N[C@H]1c1ccc(F)cc1C", "nM", 57),
    ("COC(=O)C1=C(CN2CCN3C(=O)N(C45CC(CC(=O)O)(C4)C5)C[C@@H]3C2)NC(c2nccs2)=N[C@H]1c1ccc(F)cc1Br", "nM", 32),
]

[ask] Param request: EC50 | system HBV (hepatitis B virus) in HepG2.2.15 cells | item `CCOC(=O)C1=C(CN2CCN3C(=O)N(C45CC(C#N)(C4)C5)C[C@@H]3C2)NC(c2nccs2)=N[C@H]1c1cccc(F)c1C`
[reply] 5

[ask] Param request: EC50 | system HBV (hepatitis B virus) in HepG2.2.15 cells | item `CCOC(=O)C1=C(CN2CCN3C(=O)N(C45CC(N(C)C(C)=O)(C4)C5)C[C@@H]3C2)NC(c2nccs2)=N[C@H]1c1cccc(F)c1C`
[reply] 3

[ask] Param request: EC50 | system HBV (hepatitis B virus) in HepG2.2.15 cells | item `CCOC(=O)C1=C(CN2CCN3C(=O)N(C45CC(CC(C)(C)C(=O)O)(C4)C5)C[C@@H]3C2)NC(c2nccs2)=N[C@H]1c1ccc(F)cc1Cl`
[reply] 12

[ask] Param request: EC50 | system HBV (hepatitis B virus) in HepG2.2.15 cells | item `CCOC(=O)C1=C(CN2CCN3C(=O)N(C45CC(CC(=O)O)(C4)C5)C[C@@H]3C2)NC(c2nccs2)=N[C@H]1c1ccc(F)cc1C`
[reply] 18

[ask] Param request: EC50 | system HBV (hepatitis B virus) in HepG2.2.15 cells | item `CCOC(=O)C1=C(CN2CCN3C(=O)N(C45CC(CO)(C4)C5)C[C@@H]3[C@H]2C(=O)O)NC(c2nccs2)=N[C@H]1c1cccc(F)c1C`
[reply] 202

[ask] Param request: EC50 | system HBV (hepatitis B virus) in HepG2.2.15 cells | item CCOC(=O)C1=C(CN2CCN3C(=O)N(C45CC(CO)(C4)C5)C[C@@H]3C2C(=O)OCC)NC(c2nccs2)=N[C@H]1c1cccc(F)c1C (stereo partly drawn)
[reply] 25

[ask] Param request: EC50 | system HBV (hepatitis B virus) in HepG2.2.15 cells | item `CCOC(=O)C1=C(CN2CCN3C(=O)N(C45CCC(C(=O)O)(C4)C5)C[C@@H]3C2)NC(c2nccs2)=N[C@H]1c1ccc(F)cc1Cl`
[reply] 12

---

The reader will find reported EC50 values listed item by item below.
Tested on: HBV (hepatitis B virus) in HepG2.2.15 cells
assay_remarks: Cell-based anti-viral activity assay (HBV DNA in supernatant by quantitative PCR)
study_conditions: 120 h, anti-HBV activity, HepG2.2.15 cells, 5 days, read-out: EC50 (HepG2.2.15)
Report only the number, with the unit nM understood.

[ask] For the compound CCOC(=O)C1=C(CN2CCN3C(=O)N(C45CCC(C(=O)O)(CC4)C5)C[C@@H]3C2)NC(c2nccs2)=N[C@H]1c1cccc(F)c1C [Compound 59] , give its measured EC50 value.
[reply] 12

[ask] For the compound CCOC(=O)C1=C(CN2CCN3C(=O)N(C45CC(C(=O)O)(C4)C5)C[C@@H]3C2)NC(c2nccs2)=N[C@H]1c1cccc(F)c1C [Compound 1] , give its measured EC50 value.
[reply] 33

[ask] For the compound COC(=O)C1=C(CN2CCN3C(=O)N(C45CC(CC(=O)O)(C4)C5)C[C@@H]3C2)NC(c2nccs2)=N[C@H]1c1ccc(F)c(F)c1C [Compound 41] , give its measured EC50 value.
[reply] 8

---

System: HBV (hepatitis B virus) in HepG2.2.15 cells
assay_remarks: Cell-based anti-viral activity assay (HBV DNA in supernatant by quantitative PCR)
study_conditions: 120 h, anti-HBV activity, HepG2.2.15 cells, 5 days, read-out: EC50 (HepG2.2.15)
The reader will find reported EC50 values listed item by item below.
Report only the number, with the unit nM understood.

Examples with their reported EC50 follow.
# molecule, measurement_target, parameter_measured, recorded_result
rows = [
    ("CCOC(=O)C1=C(CN2CCN3C(=O)N(C45CC(CNC(C)=O)(C4)C5)C[C@@H]3C2)NC(c2nccs2)=N[C@H]1c1cccc(F)c1C [Compound 15]", "HBV (hepatitis B virus) in HepG2.2.15 cells", "EC50", 4),
    ("CCOC(=O)C1=C(CN2CCN3C(=O)N(C45CC(C(=O)NS(C)(=O)=O)(C4)C5)C[C@@H]3C2)NC(c2nccs2)=N[C@H]1c1cccc(F)c1C [Compound 28]", "HBV (hepatitis B virus) in HepG2.2.15 cells", "EC50", 21),
    ("CCOC(=O)C1=C(CN2CCN3C(=O)N(C45CC(N6CCCS6(=O)=O)(C4)C5)C[C@@H]3C2)NC(c2nccs2)=N[C@H]1c1cccc(F)c1C [Compound 19]", "HBV (hepatitis B virus) in HepG2.2.15 cells", "EC50", 3),
    ("CCOC(=O)C1=C(CN2CCN3C(=O)N(C45CCC(C(=O)O)(CC4)C5)C[C@@H]3C2)NC(c2nccs2)=N[C@H]1c1ccc(F)cc1Cl [Compound 60]", "HBV (hepatitis B virus) in HepG2.2.15 cells", "EC50", 9),
    ("CCOC(=O)C1=C(CN2CCN3C(=O)N(C45CC(CC(=O)O)(C4)C5)C[C@@H]3C2)NC(c2nccs2)=N[C@H]1c1cccc(F)c1C [Compound 22]", "HBV (hepatitis B virus) in HepG2.2.15 cells", "EC50", 7),
    ("CCOC(=O)C1=C(CN2CCN3C(=O)N(C45CC(CNS(N)(=O)=O)(C4)C5)C[C@@H]3C2)NC(c2nccs2)=N[C@H]1c1cccc(F)c1C [Compound 24]", "HBV (hepatitis B virus) in HepG2.2.15 cells", "EC50", 9),
    ("CCOC(=O)C1=C(CN2CCN3C(=O)N(C45CC(CNS(=O)(=O)C6CC6)(C4)C5)C[C@@H]3C2)NC(c2nccs2)=N[C@H]1c1cccc(F)c1C [Compound 23]", "HBV (hepatitis B virus) in HepG2.2.15 cells", "EC50", 4),
    ("CCOC(=O)C1=C(CN2CCN3C(=O)N(C45CC(NS(=O)(=O)C6CC6)(C4)C5)C[C@@H]3C2)NC(c2nccs2)=N[C@H]1c1cccc(F)c1C [Compound 29]", "HBV (hepatitis B virus) in HepG2.2.15 cells", "EC50", 6),
]

[ask] For the molecule CCOC(=O)C1=C(CN2CCN3C(=O)N(C45CC(N(C)S(C)(=O)=O)(C4)C5)C[C@@H]3C2)NC(c2nccs2)=N[C@H]1c1cccc(F)c1C [Compound 11] , give its measured EC50 value.
[reply] 4

[ask] For the molecule CCOC(=O)C1=C(CN2CCN3C(=O)N(C45CC(COC)(C4)C5)C[C@@H]3[C@@H]2C(=O)O)NC(c2nccs2)=N[C@H]1c1cccc(F)c1C [Compound 48] , give its measured EC50 value.
[reply] 15

[ask] For the molecule CCOC(=O)C1=C(CN2CCN3C(=O)N(C45CCC(CC(=O)O)(CC4)C5)C[C@@H]3C2)NC(c2nccs2)=N[C@H]1c1cccc(F)c1C [Compound 63] , give its measured EC50 value.
[reply] 26

[ask] For the molecule CCOC(=O)C1=C(CN2CCN3C(=O)N(C45CC(C(C)(C)C(=O)O)(C4)C5)C[C@@H]3C2)NC(c2nccs2)=N[C@H]1c1cccc(F)c1C [Compound 42] , give its measured EC50 value.
[reply] 11

Just for reference, patent US20240166649A1 is where these values come from.
